experiment: yeast display, Sf9 membrane polyspecificity reagent, FACS + sequencing; frameworks hold sequencing errors
parameter-measured: polyreactivity (PSR sort gate)

{"query-sequence": "QVQLVESGGGLVQAGGSLRLSCAASGSIFQVYAMGWYRQAPGKETELVAAIRRRGGSTYYADSVKGRFTISRDNAKNTVYLQMNSLKPEDTAVDYCAARTVGFYRYDYWGLGTQVTVSS", "parameter-measured": "polyreactivity (PSR sort gate)", "result": "low polyreactivity"}
{"query-sequence": "QVQLVESGGGLVQAGGSLRLSCAASGRTFWWYAMGWYRQAPGKERELVATINVSGGSTYYADSVKGRFTISRDNAKNTVYFQINSLKPEDTAVYYCNKRGFYTPSVSYDYWGQGTQVTVSS", "parameter-measured": "polyreactivity (PSR sort gate)", "result": "low polyreactivity"}
{"query-sequence": "QVQLVESGGGLVQAGGSLRLSGAASGRTLYGYAMGWYRQAPGKERELVARITGRDGSTDYADSVKGRFTISRDNAKNTVYFPMNSLKPEETAVYSCNARVRFHWYRSDYWGQGTEVTVSS", "parameter-measured": "polyreactivity (PSR sort gate)", "result": "high polyreactivity"}
{"query-sequence": "QVQLVESGGGLVQAGGSLRLSCAASGRIYNSYAMGWYRQAPGKERELVASTNYADSVKGRFTISRDNAKNTVYLQMNSLKPEDSAVYYCARVDVGWQGGEVLFGRFGYWGQGTQVTVSS", "parameter-measured": "polyreactivity (PSR sort gate)", "result": "low polyreactivity"}
{"query-sequence": "QVQLVESGGGLVQAGGSLRLSCAASGSTFLPYAMGWYRQAPGKERELVAAIDWNGGRTYYADSVKGRFTISRDNAKNTVYLQMNSLKPEDTAVYYCAKLGRAAQGNYYWGQGTQVTVSS", "parameter-measured": "polyreactivity (PSR sort gate)", "result": "high polyreactivity"}
{"query-sequence": "QVQLVESGGGLFQAGGSLRLSCAPSGSIFTTYAMGWYRQAPGKERELVAAITDTCSTNYADSVKGRFTISRDNAKNTVYLQMNSLKPEDTAVYYCAVDLGYEYDWGQGTEVTVSS", "parameter-measured": "polyreactivity (PSR sort gate)", "result": "low polyreactivity"}
{"query-sequence": "QVQLVESGGGLVQAGGSLRLSCAASGLTFRYYAMGWYRQAPGKERELVATITGSGGSTYYADSVKGRFTISRDNAKNTVYFQMNSLNPEYTAVYYCAATVRVYDYWGQGTQVNVSS", "parameter-measured": "polyreactivity (PSR sort gate)", "result": "high polyreactivity"}
{"query-sequence": "QDQLVESGGGLDHAGGSIRLSCAASGFISKYYAMGWYTQAPGKERELVASISRDGSTSYADTVKGRFTNTRDNAKNPVYLQMNSLKPEDTAVYYCNAGYNWYPLFDYWGQGTQVTVSS", "parameter-measured": "polyreactivity (PSR sort gate)", "result": "high polyreactivity"}

Source listed as the nanobody polyreactivity screen of Harvey et al. (2022).
